- PROTOCOL: 1H NMR titration, pKa of E/Z isomers
- Format: physicochemical
- TEST PARAMETERS: 10% D2O/H2O, cL = 200 μM, I = 0.1 M (KCl), 25 °C, read-out: pKa of minor Z isomer
MEASUREMENT TYPE: pKa

Request: Please indicate pKa recorded for C[N+](C)(C)Cc1ccc(O)c(/C=N/NC(N)=S)c1 [[H2L^H]Cl]
Result: 6.95

* * *

- PROTOCOL: Solution stability of copper(II) complexes, UV/Vis spectrophotometric titration
- Assay type: physicochemical
- TEST PARAMETERS: pH = 7.4; cCu(II) = 10 μM; cL = 10 μM
MEASUREMENT TYPE: pCu (−log[Cu(II)])
// print number alone

Request: Look up and report measured pCu (−log[Cu(II)]) for this entry: C[N+](C)(C)Cc1ccc(O)c(/C=N/NC(=S)Nc2ccccc2)c1 [[H2L^Ph]Cl]
Result: 12.80

Request: State its pCu (−log[Cu(II)]): CNC(=S)N/N=C/c1cc(C[N+](C)(C)C)ccc1O [[H2L^Me]Cl]
Result: 11.79

Request: Entry C[N+](C)(C)Cc1ccc(O)c(/C=N/NC(N)=S)c1 [[H2L^H]Cl] needs its pCu (−log[Cu(II)]) filled in; supply it.
Result: 12.21

Request: Supply measured pCu (−log[Cu(II)]) of CCNC(=S)N/N=C/c1cc(C[N+](C)(C)C)ccc1O [[H2L^Et]Cl] in your reply.
Result: 11.82

* * *

- PROTOCOL: Solution stability of copper(II) complexes, UV/Vis spectrophotometric titration
- Format: physicochemical
- TEST PARAMETERS: mixed hydroxido [CuL(OH)] species; I = 0.1 M (KCl); t = 25 °C
MEASUREMENT TYPE: logβ [CuLH−1]

Look over these answered cases.
* C[N+](C)(C)Cc1ccc(O)c(/C=N/NC(=S)Nc2ccccc2)c1 [[H2L^Ph]Cl] | −1.31 ± 0.05
* CNC(=S)N/N=C/c1cc(C[N+](C)(C)C)ccc1O [[H2L^Me]Cl] | −1.48 ± 0.08
* C[N+](C)(C)Cc1ccc(O)c(/C=N/NC(N)=S)c1 [[H2L^H]Cl] | −1.66 ± 0.02

Next up:
Request: Consider the molecule CCNC(=S)N/N=C/c1cc(C[N+](C)(C)C)ccc1O [[H2L^Et]Cl] and give its recorded logβ [CuLH−1].
Result: −1.65 ± 0.09
